molecular target: FLT3 (Homo sapiens (Human), UniProt P36888); experiment: Kinase selectivity panel: FLT3; format: biochemical; settings: read-out: pIC50 FLT3 (converted)
Sequence (P36888 27-993, species assumed): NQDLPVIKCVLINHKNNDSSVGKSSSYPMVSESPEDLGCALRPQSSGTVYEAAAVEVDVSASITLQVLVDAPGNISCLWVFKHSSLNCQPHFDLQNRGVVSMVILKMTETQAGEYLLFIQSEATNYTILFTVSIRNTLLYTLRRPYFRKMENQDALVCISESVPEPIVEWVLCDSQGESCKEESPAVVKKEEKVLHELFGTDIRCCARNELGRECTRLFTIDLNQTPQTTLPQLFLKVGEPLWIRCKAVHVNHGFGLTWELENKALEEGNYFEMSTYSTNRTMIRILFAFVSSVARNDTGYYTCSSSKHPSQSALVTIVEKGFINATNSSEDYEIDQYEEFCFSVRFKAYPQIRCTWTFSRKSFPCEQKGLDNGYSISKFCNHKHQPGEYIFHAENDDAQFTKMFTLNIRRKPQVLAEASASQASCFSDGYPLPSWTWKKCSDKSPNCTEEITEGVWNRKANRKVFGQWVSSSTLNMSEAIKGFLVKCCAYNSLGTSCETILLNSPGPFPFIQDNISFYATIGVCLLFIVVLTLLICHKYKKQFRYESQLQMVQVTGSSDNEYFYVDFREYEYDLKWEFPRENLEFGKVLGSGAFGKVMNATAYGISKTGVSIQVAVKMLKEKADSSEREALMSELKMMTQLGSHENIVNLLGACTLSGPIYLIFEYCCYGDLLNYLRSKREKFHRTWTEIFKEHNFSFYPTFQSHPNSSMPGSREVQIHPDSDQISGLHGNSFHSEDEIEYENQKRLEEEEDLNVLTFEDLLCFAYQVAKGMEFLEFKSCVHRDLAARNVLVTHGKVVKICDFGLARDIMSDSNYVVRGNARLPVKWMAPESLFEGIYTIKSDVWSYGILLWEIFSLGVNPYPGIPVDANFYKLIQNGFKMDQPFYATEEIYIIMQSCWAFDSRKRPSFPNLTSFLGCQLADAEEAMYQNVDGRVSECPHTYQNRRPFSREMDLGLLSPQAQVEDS
assay_endpoint: IC50 (µM)

compound: COc1cccc(-c2cn(-c3ccccc3)c3nc[nH]c(=O)c23)c1 [Ex-22]
reported_measurement: 31.6

I. O=c1[nH]cnc2c1c(-c1ccc(OCCCN3CCOCC3)cc1)cn2-c1ccccc1 [Ex-27]
II. O=C1NCCN1c1ccc(-c2cn(-c3ccccc3)c3nc[nH]c(=O)c23)cc1 [Ex-61]
III. O=c1[nH]cnc2c1c(-c1ccc(OCCO)cc1F)cn2-c1ccccc1 [Ex-56]
# ascending order, key=IC50 Labels, ranked as asked.
I, III, II
(I: 7.94 µM, III: 15.8 µM, II: 31.6 µM)
